Tested on: CCRF-CEM
Test method notes: Compound was evaluated for the cytotoxicity against CEM cell proliferation by 50%
Assay type: functional
Condition info: Homo sapiens
CC50 listing for selected compounds.
Readout: CC50 (µM)

[[record]]
compound = "COCCOCCOc1ccc(OP(=O)(NC(C)C(=O)OC)OCC2C=CC(n3cc(C)c(=O)[nH]c3=O)O2)cc1 (configuration not stated)"
readout = "CC50"
unit_text = "µM"
reading_qualifier = "="
recorded_result = 47

[[record]]
compound = "COC(=O)C(C)NP(=O)(OC[C@@H]1C=C[C@H](n2cc(C)c(=O)[nH]c2=O)O1)Oc1ccc(OC)cc1 (some centres not stated)"
readout = "CC50"
unit_text = "µM"
reading_qualifier = ">"
recorded_result = 100

[[record]]
compound = "COCCOc1ccc(OP(=O)(NC(C)C(=O)OC)OCC2C=CC(n3cc(C)c(=O)[nH]c3=O)O2)cc1 (configuration not stated)"
readout = "CC50"
unit_text = "µM"
reading_qualifier = "="
recorded_result = 35

[[record]]
compound = "CCOCCOc1ccc(OP(=O)(NC(C)C(=O)OC)OCC2C=CC(n3cc(C)c(=O)[nH]c3=O)O2)cc1 (configuration not stated)"
readout = "CC50"
unit_text = "µM"
reading_qualifier = "="
recorded_result = 64

[[record]]
compound = "COC(=O)C(C)NP(=O)(OC[C@@H]1C=C[C@H](n2cc(C)c(=O)[nH]c2=O)O1)Oc1ccccc1 (some centres not stated)"
readout = "CC50"
unit_text = "µM"
reading_qualifier = "="
recorded_result = 33

[[record]]
compound = "COC(=O)C(C)NP(=O)(OCC1C=CC(n2cc(C)c(=O)[nH]c2=O)O1)Oc1ccc(CC(NC(=O)OC(C)(C)C)C(=O)OC)cc1 (configuration not stated)"
readout = "CC50"
unit_text = "µM"
reading_qualifier = "="
recorded_result = 217

[[record]]
compound = "COCCOCCOCCOc1ccc(OP(=O)(NC(C)C(=O)OC)OCC2C=CC(n3cc(C)c(=O)[nH]c3=O)O2)cc1 (configuration not stated)"
readout = "CC50"
unit_text = "µM"
reading_qualifier = "="
recorded_result = 114

